Target Entity: NK1 (Homo sapiens)
Sequence (P25103 whole entry): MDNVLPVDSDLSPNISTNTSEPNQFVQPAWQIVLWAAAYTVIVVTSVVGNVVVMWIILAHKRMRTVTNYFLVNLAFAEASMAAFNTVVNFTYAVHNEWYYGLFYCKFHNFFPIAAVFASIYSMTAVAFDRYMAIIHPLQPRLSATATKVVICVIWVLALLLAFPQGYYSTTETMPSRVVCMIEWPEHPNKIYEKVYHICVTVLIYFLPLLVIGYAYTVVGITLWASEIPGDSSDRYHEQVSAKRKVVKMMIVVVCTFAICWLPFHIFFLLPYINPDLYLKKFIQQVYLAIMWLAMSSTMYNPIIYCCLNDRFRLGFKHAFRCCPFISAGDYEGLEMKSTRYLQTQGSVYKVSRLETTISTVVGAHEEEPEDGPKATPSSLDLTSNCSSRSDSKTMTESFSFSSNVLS
Protocol Notes: Signal transduction (ST), intracellular Ca++ (FLIPR), NK1 antagonistic activity
Type: cell-based
Assay Setup: read-out: pIC50 NK1 (converted)
So I've got a bunch of compounds here, and I need their IC50 values.
Give bare numbers, in nM.

Reference set (4 entries):
| Compound | Output Unit | IC50 |
| --- | --- | --- |
| O=C(C1CCCCN1C(=O)c1ccccc1Cl)N1CCC(N2CCN(C3CCN(C(=O)c4cc(C(F)(F)F)cc(C(F)(F)F)c4)C(Cc4ccccc4)C3)CC2)C1 (centres unmarked) | nM | 15.8 |
| O=C(c1ccccc1Cl)N1CCC(N2CCN(C3CCN(C(=O)c4cc(C(F)(F)F)cc(C(F)(F)F)c4)C(Cc4ccccc4)C3)CC2)C1 (single isomer, unassigned) [Compound 87] | nM | 126 |
| CC(C)(C)OC(=O)NC(C)(C)C(=O)N1CCC(N2CCN(C3CCN(C(=O)c4cc(C(F)(F)F)cc(C(F)(F)F)c4)C(Cc4ccccc4)C3)CC2)C1 (centres unmarked) | nM | 10 |
| COc1ccc(Cl)cc1S(=O)(=O)N1CCC(N2CCN([C@H]3CCN(C(=O)c4cc(C(F)(F)F)cc(C(F)(F)F)c4)[C@H](Cc4ccccc4)C3)CC2)C1 (some centres unmarked) | nM | 79.4 |

Tell me the measured IC50 of O=C(C1CC1)N1CCC(N2CCN(C3CCN(C(=O)c4cc(C(F)(F)F)cc(C(F)(F)F)c4)C(Cc4ccc(F)c(F)c4)C3)CC2)C1 (single isomer, unassigned) [Compound 252] , please.
10

====

So I've got a bunch of compounds here, and I need their IC50 values.
Target Entity: NK3 (Homo sapiens, UniProt P29371)
Sequence (P29371 1-465): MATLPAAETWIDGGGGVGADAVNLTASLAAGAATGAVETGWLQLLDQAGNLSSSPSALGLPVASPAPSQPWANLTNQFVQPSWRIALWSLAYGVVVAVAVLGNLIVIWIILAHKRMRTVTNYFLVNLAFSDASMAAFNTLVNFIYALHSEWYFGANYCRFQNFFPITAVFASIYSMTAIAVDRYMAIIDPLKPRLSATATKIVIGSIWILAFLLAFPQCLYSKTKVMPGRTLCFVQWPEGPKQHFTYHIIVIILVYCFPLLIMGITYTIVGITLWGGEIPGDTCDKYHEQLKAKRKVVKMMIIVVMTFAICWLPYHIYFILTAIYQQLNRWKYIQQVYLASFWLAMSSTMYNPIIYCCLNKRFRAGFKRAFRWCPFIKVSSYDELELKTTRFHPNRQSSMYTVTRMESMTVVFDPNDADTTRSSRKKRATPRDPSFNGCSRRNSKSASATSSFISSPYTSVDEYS
Protocol Notes: Signal transduction (ST), intracellular Ca++ (FLIPR), NK3
Format: cell-based
Assay Setup: read-out: pIC50 NK3 (converted)
Answers are plain numbers, in nM.

| Compound | Output Unit | IC50 |
| --- | --- | --- |
| COC(C(=O)N1CCC(N2CCN(C3CCN(C(=O)c4cc(C(F)(F)F)cc(C(F)(F)F)c4)C(Cc4ccccc4)C3)CC2)C1)c1ccccc1 (centres unmarked) [Compound 109] | nM | 7940 |
| O=C(c1cc(F)ccc1F)N1CCC(N2CCN([C@H]3CCN(C(=O)c4cc(C(F)(F)F)cc(C(F)(F)F)c4)[C@H](Cc4ccccc4)C3)CC2)C1 (some centres unmarked) [Compound 21] | nM | 398 |
| Cn1cccc(C(=O)N2CCC(N3CCN(C4CCN(C(=O)c5cc(C(F)(F)F)cc(C(F)(F)F)c5)C(Cc5ccc(F)c(F)c5)C4)CC3)C2)c1=O (single isomer, unassigned) [Compound 260] | nM | 3980 |
| O=C(c1ccccc1Cl)N1CC[C@H](N2CCN([C@H]3CCN(C(=O)c4cc(C(F)(F)F)cc(C(F)(F)F)c4)[C@H](Cc4ccc(Cl)c(Cl)c4)C3)CC2)C1 [Compound 315] | nM | 631 |

Tell me the measured IC50 of N#Cc1ccccc1C(=O)N1CCC(N2CCN(C3CCN(C(=O)c4cc(C(F)(F)F)cc(C(F)(F)F)c4)C(Cc4ccccc4)C3)CC2)C1 (centres unmarked) [Compound 195] , please.
398

====

Target Entity: NK3 (Homo sapiens, UniProt P29371)
Sequence (P29371 1-465): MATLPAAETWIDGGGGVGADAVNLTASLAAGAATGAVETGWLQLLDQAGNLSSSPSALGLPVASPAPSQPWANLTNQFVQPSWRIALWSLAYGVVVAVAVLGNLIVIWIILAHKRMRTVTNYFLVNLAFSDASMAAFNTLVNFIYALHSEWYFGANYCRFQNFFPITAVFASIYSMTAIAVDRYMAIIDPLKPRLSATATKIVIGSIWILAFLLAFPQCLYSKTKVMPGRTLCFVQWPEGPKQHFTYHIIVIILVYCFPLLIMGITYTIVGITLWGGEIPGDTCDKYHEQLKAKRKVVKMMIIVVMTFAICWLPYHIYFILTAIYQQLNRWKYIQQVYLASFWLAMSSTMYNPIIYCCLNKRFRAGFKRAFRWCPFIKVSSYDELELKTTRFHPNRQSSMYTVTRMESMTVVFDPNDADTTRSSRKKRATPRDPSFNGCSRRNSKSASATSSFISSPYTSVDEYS
Protocol Notes: Signal transduction (ST), intracellular Ca++ (FLIPR), NK3
Format: cell-based
Assay Setup: read-out: pIC50 NK3 (converted)
Quantity Kind: IC50 (nM)
Give bare numbers, in nM.

Reference set (3 entries):
| Compound | Output Unit | IC50 |
| --- | --- | --- |
| Cc1noc(C)c1S(=O)(=O)N1CCC(N2CCN(C3CCN(C(=O)c4cc(C(F)(F)F)cc(C(F)(F)F)c4)C(Cc4ccccc4)C3)CC2)C1 (centres unmarked) | nM | 501 |
| O=C(c1ccccc1Cl)N1CCC(N2CCN([C@H]3CCN(C(=O)c4cc(C(F)(F)F)cc(C(F)(F)F)c4)[C@H](Cc4ccccc4)C3)CC2)C1 (some centres unmarked) | nM | 251 |
| O=C(c1cc2ccccc2s1)N1CCC(N2CCN([C@H]3CCN(C(=O)c4cc(C(F)(F)F)cc(C(F)(F)F)c4)[C@H](Cc4ccccc4)C3)CC2)C1 (some centres unmarked) | nM | 3160 |

// batch mode: one IC50 value per listed entry
1. O=C(c1cnccn1)N1CCC(N2CCN(C3CCN(C(=O)c4cc(C(F)(F)F)cc(C(F)(F)F)c4)C(Cc4ccc(F)c(F)c4)C3)CC2)C1 (single isomer, unassigned) [Compound 259]
2. O=C(c1cc(C(F)(F)F)cc(C(F)(F)F)c1)N1CCC(N2CCN(C3CCN(C(CO)c4ccsc4)C3)CC2)CC1Cc1ccccc1 (centres unmarked)
3. O=C(c1ccccc1Cl)N1CCC(N2CCN([C@H]3CCN(C(=O)c4cc(C(F)(F)F)cc(C(F)(F)F)c4)[C@H](Cc4ccc(Cl)c(Cl)c4)C3)CC2)C1 (relative stereo)
4. O=C(c1c(Cl)cccc1Cl)N1CC[C@H](N2CCN([C@H]3CCN(C(=O)c4cc(C(F)(F)F)cc(C(F)(F)F)c4)[C@H](Cc4ccc(Cl)c(Cl)c4)C3)CC2)C1
5. O=C(c1ccc(Cl)cc1Cl)N1CCC(N2CCN([C@H]3CCN(C(=O)c4cc(C(F)(F)F)cc(C(F)(F)F)c4)[C@H](Cc4ccccc4)C3)CC2)C1 (some centres unmarked)
6. COc1cccc(S(=O)(=O)N2CCC(N3CCN([C@H]4CCN(C(=O)c5cc(C(F)(F)F)cc(C(F)(F)F)c5)[C@H](Cc5ccccc5)C4)CC3)C2)c1 (some centres unmarked)

[501, 6310, 398, 631, 2510, 2510]

// batch mode: one IC50 value per listed entry
1. O=C(c1ccccc1O)N1CCC(N2CCN([C@H]3CCN(C(=O)c4cc(C(F)(F)F)cc(C(F)(F)F)c4)[C@H](Cc4ccccc4)C3)CC2)C1 (some centres unmarked)
2. CCOCCn1c(CN2CCC(N3CCN([C@H]4CCN(C(=O)c5cc(C(F)(F)F)cc(C(F)(F)F)c5)[C@H](Cc5ccccc5)C4)CC3)C2)nc2ccccc21 (some centres unmarked)

2000
3160

====

Target Entity: NK3 (Homo sapiens)
Sequence (P29371 1-465): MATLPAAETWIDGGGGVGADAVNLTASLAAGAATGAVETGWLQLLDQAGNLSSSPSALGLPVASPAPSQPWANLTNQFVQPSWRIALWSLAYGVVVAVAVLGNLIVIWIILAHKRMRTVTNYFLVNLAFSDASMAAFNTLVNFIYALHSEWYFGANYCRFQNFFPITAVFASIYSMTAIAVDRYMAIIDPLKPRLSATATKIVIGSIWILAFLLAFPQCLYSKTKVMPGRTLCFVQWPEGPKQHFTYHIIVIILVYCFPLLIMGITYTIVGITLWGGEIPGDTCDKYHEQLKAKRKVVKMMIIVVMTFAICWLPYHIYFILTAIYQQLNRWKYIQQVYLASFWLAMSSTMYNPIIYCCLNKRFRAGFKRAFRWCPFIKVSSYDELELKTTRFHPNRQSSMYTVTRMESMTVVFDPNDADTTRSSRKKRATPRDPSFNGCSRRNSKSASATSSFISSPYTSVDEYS
Protocol Notes: Signal transduction (ST), intracellular Ca++ (FLIPR), NK3
Assay type: cell-based
Assay Setup: read-out: pIC50 NK3 (converted)
Protocol: [The procedure below names another target; the source lists this target under the same test.] This test evaluates in vitro functional NK1 antagonistic activity. For the measurements of intracellular Ca^++ concentrations the cells were grown on 96-well (black wall/transparent bottom) plates from Costar for 2 days until they reached confluence. […] The cells were preincubated with a concentration range of antagonists for 20 min at RT and Ca^++-signals after addition of the agonists were measured in a Fluorescence Image Plate Reader (FLIPR from Molecular Devices, Crawley, England). […]
Quantity Kind: IC50 (nM)
Numbers only, in nM.

Reference set (2 entries):
| Compound | Target Entity | Quantity Kind | Reported Result |
| --- | --- | --- | --- |
| Cn1cccc1C(=O)N1CCC(N2CCN(C3CCN(C(=O)c4cc(C(F)(F)F)cc(C(F)(F)F)c4)C(Cc4ccc(F)c(F)c4)C3)CC2)C1 (single isomer, unassigned) [Compound 367] | NK3 (Homo sapiens) | IC50 | 1580 |
| O=C(C(O)c1ccccc1)N1CCC(N2CCN([C@H]3CCN(C(=O)c4cc(C(F)(F)F)cc(C(F)(F)F)c4)[C@H](Cc4ccccc4)C3)CC2)C1 (stereo partly drawn) | NK3 (Homo sapiens) | IC50 | 5010 |

Now look at this entry.
Tell me the measured IC50 of O=C(c1cc(Cl)sc1Cl)N1CCC(N2CCN([C@H]3CCN(C(=O)c4cc(C(F)(F)F)cc(C(F)(F)F)c4)[C@H](Cc4ccccc4)C3)CC2)C1 (stereo partly drawn) , please.
631
